Data origin, for the record: paper PMC4450297

- System: HCC1569
- protocol.notes: Cell panel screen (CellTiter-Glo)
- Assay type: cell-based, human
- experimental.parameters: HCC1569 (Breast), 20 micromolar, 72 hrs
# key: entry, value: Percent Inhibition

compound | test.system | Percent Inhibition, %
O=C1c2c(O)cc(O)cc2OC(c2ccc(O)cc2)C1c1c(O)cc(O)c2c(=O)cc(-c3ccc(O)c(O)c3)oc12 (stereo not shown) [WZ-4] | HCC1569 | -17
CC(C)=CCCC1(C)C=Cc2c(O)c3c(c(CC=C(C)C)c2O1)OC12C(=CC4CC1C(C)(C)OC2(CC=C(C)C(=O)O)C4=O)C3=O (mixture of isomers) [GB8] | HCC1569 | 100
CC(C)=CCC/C(C)=C/Cc1c(O)c(CC=C(C)C)c2c(c1O)C(=O)C1=C[C@@H]3C[C@H]4C(C)(C)O[C@@](C/C=C(/C)C(=O)O)(C3=O)[C@@]14O2 [GB16] | HCC1569 | 99
CC1(C)C=Cc2c(cc(O)c3c(=O)c4cc5c(c(O)c4oc23)OC(C)(C)C=C5)O1 [Go-16] | HCC1569 | 11
CC(C)=CCC[C@@]1(C)C=Cc2c(O)c3c(c(CC=C(C)C)c2O1)O[C@]12C(=C[C@@H]4C[C@H]1C(C)(C)O[C@@]2(C/C=C(/C)C(=O)O)C4=O)C3=O [GB11] | HCC1569 | 99
COC(=O)C1OC(Oc2cc(O)c3c(c2)OC(c2ccc(O)c(O)c2)CC3=O)C(O)C(O)C1O (stereo not shown) [gly-5] | HCC1569 | -7
O=c1c2cc(O)c(O)cc2oc2cc(O)cc(O)c12 [Ge-17] | HCC1569 | 16
